// data source = PubChem BioAssay (EPA / NIEHS)

Biological target: Estrogen receptor beta (Homo sapiens) (UniProt Q92731)
Sequence (Q92731 whole entry, looked up, the tested form may be a part): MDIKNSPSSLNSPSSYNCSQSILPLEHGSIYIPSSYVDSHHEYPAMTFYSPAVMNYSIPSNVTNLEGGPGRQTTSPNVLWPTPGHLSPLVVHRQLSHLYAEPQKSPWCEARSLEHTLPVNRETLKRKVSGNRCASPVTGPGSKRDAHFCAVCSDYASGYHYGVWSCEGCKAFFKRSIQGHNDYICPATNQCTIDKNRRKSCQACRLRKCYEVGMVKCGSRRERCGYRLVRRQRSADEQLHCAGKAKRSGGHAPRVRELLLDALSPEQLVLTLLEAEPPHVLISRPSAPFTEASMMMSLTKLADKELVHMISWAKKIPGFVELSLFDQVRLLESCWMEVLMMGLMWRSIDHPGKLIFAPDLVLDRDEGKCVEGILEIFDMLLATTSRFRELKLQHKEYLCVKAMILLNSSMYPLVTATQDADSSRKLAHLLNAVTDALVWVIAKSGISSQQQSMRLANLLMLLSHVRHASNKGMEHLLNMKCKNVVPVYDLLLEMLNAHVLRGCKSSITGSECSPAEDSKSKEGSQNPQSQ
Experiment: OT_ER_ERbERb_1440: Odyssey Thera (OT) 24-hour HEK293T Protein-Complementation Assay for Estrogen Receptor-beta/-beta Homodimer (AID 2283380);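 further: fluorescence gain from ER beta LBD homodimer complementation read by laser scanning cytometry; scored as signal increase over DMSO baseline for both agonists and antagonists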
Active and inactive are the calls of the source. How the source made its calls: active means hit-call score of the fitted dose curve at least 0.9, where 1 is the maximum; inconclusive means response in the unintended direction; inactive means score below 0.9.
# valid calls are active, inactive; nothing else

Worked cases, answers included:
>  <compound>
CCOC(=O)COc1cc(-n2ncc(C(F)(F)F)c(C)c2=O)c(F)cc1Cl

>  <label.class>
inactive

$$$$
>  <compound>
CCCCCCC(C)OC(=O)COc1nc(F)c(Cl)c(N)c1Cl (stereo not drawn)

>  <label.class>
active

$$$$
>  <compound>
CCCN(CCC)c1c([N+](=O)[O-])cc(C(F)(F)F)c(N)c1[N+](=O)[O-]

>  <label.class>
inactive

$$$$
>  <compound>
S=C(S)NCCNC(=S)S.[Mn+2].[S-]C([S-])=NCCN=C([S-])[S-].[Zn+2]

>  <label.class>
inactive

$$$$

Request: Dear colleague, could you share the recorded outcome for C[C@]12C[C@H](O)[C@H]3[C@@H](CCC4=CC(=O)CC[C@@]43C)[C@@H]1CC[C@@H]2C(=O)CO when you have a moment?
Result: inactive

###

Read-out: succinate dehydrogenase complex iron sulfur subunit B (SDHB), SDHB (gene 6390)
Test: LTEA_HepaRG_SDHB: Life Technologies and Expression Analysis (LTEA) Assay for succinate dehydrogenase complex iron sulfur subunit B (SDHB) using HepaRG (AID 2283528)
Conditions: mRNA level, 48 h; actives raise or lower the signal
Active and inactive are the calls of the source. Rule for the calls: active = hit-call score of the fitted dose curve at least 0.9, where 1 is the maximum; inactive = score below 0.9.
# valid calls are active, inactive; nothing else

>  <molecule>
S=C([S-])NCCNC(=S)[S-].[Mn+2]

>  <label.class>
active

$$$$

Request: Dear colleague, could you share the recorded outcome for CCCOC(=O)NCCCN(C)C when you have a moment?
Result: inactive

Request: Dear colleague, could you share the recorded outcome for N#CSCSc1nc2ccccc2s1 when you have a moment?
Result: inactive

Request: Dear colleague, could you share the recorded outcome for N[C@@H](Cc1cc(I)c(Oc2ccc(O)c(I)c2)c(I)c1)C(=O)O when you have a moment?
Result: inactive

Request: Dear colleague, could you share the recorded outcome for CCC(C)OC(=O)N1CCCCC1CCO (configuration not stated) when you have a moment?
Result: inactive

Request: Dear colleague, could you share the recorded outcome for CSC(=O)c1cccc2nnsc12 when you have a moment?
Result: inactive

Request: Dear colleague, could you share the recorded outcome for CCSC(=O)N(CC(C)C)CC(C)C when you have a moment?
Result: inactive

###

Molecular target: Luciferin 4-monooxygenase (Photinus pyralis)
Test: CCTE_Simmons_QuantiLum_inhib_2: CCTE's Firefly Luciferase Inhibition Assay, Simmons Lab (AID 2283767)
Inconclusive results are not listed. Calls of active or inactive are those of the source. How the source made its calls: active means hit-call score of the fitted dose curve at least 0.9, where 1 is the maximum; inconclusive means response in the unintended direction; inactive means score below 0.9.
# valid calls are Yes = active, No = inactive; nothing else

Worked cases, answers included:
>  <compound>
S=C([S-])NCCNC(=S)[S-].[Mn+2]

>  <assayed.system>
Luciferin 4-monooxygenase (Photinus pyralis)

>  <label.class>
No

$$$$
>  <compound>
CCCCOCCOCCOCc1cc2c(cc1CCC)OCO2

>  <assayed.system>
Luciferin 4-monooxygenase (Photinus pyralis)

>  <label.class>
No

$$$$
>  <compound>
c1ccc(Nc2ccccc2)cc1

>  <assayed.system>
Luciferin 4-monooxygenase (Photinus pyralis)

>  <label.class>
No

$$$$
>  <compound>
CC(C)CCCCCCc1ccc(O)cc1

>  <assayed.system>
Luciferin 4-monooxygenase (Photinus pyralis)

>  <label.class>
No

$$$$
>  <compound>
CSC(=O)c1cccc2nnsc12

>  <assayed.system>
Luciferin 4-monooxygenase (Photinus pyralis)

>  <label.class>
No

$$$$
>  <compound>
CCCOC(=O)c1ccc(C(=O)OCCC)nc1

>  <assayed.system>
Luciferin 4-monooxygenase (Photinus pyralis)

>  <label.class>
No

$$$$
>  <compound>
O=C(Nc1ccc([N+](=O)[O-])cc1Cl)c1cc(Cl)ccc1O

>  <assayed.system>
Luciferin 4-monooxygenase (Photinus pyralis)

>  <label.class>
No

$$$$
>  <compound>
N[C@@H](Cc1cc(I)c(Oc2ccc(O)c(I)c2)c(I)c1)C(=O)O

>  <assayed.system>
Luciferin 4-monooxygenase (Photinus pyralis)

>  <label.class>
No

$$$$

Please turn your attention to the following entry.
Request: Dear colleague, could you share the recorded outcome for CCOC(=O)C(C)Oc1ccc(Oc2nc3ccc(Cl)cc3o2)cc1 (centres undefined) when you have a moment?
Result: Yes
